System: HS 578T breast
Method summary: NCI-60 one-dose screen, 48 h (100 = growth as untreated, 0 = no growth, -100 = all killed)
Conditions used: 10 µM
Compounds without any hit were thinned out: in the full panel of roughly 83,000, 20% have a hit. Activity calls are given as the source filed them. The calls were made as follows: active = growth percent below 10; inactive = the rest.
Measured property: growth

Record CCC1NC(=O)c2cc(S(N)(=O)=O)c(Cl)cc2N1 (configuration not stated) has HS 578T breast growth equal to 112% (inactive)

Record COc1cc(C)ccc1Oc1nc(Nc2ccc(N3CCOCC3)cc2)ncc1NC(=O)Nc1cc(C(F)(F)F)cc(C(F)(F)F)c1 has HS 578T breast growth equal to 43.6% (inactive)

Record CN1C(=O)C2(Nc3cc(Cl)ccc3S2)c2cc(Cl)ccc21 (configuration not stated) has HS 578T breast growth equal to 91.1% (inactive)

Record COc1ccc(-c2cc(-c3ccc(OC)c(OC)c3)nc(SCCCC(=O)NO)n2)cc1 has HS 578T breast growth equal to 4.08% (active)

Record CNS(=O)(=O)Oc1ccc(-c2ccc3occc3c2)cc1 has HS 578T breast growth equal to 110% (inactive)

Record O=C(CCc1nnc2sc(-c3cc(O)c(O)c(O)c3)nn12)c1nc2ccccc2[nH]1 has HS 578T breast growth equal to 88.2% (inactive)

Record COc1cc(/C=C2\CCCC3C2=Nc2ccccc2NC3c2cc(OC)c(OC)c(OC)c2)cc(OC)c1OC (configuration not stated) has HS 578T breast growth equal to 53.2% (inactive)

Record Cc1noc(C)c1CSc1ccccc1C(=O)N1CCN(c2cccc(C(F)(F)F)c2)CC1 has HS 578T breast growth equal to 90.4% (inactive)

Record CN1CCN(c2cc3c(cc2F)c(=O)c(C(=O)O)cn3-c2ccc(F)cc2)CC1 has HS 578T breast growth equal to 99.6% (inactive)

Record O=C(CCCNC(=O)c1nc(-c2ccccc2)n(-c2ccccc2)n1)NO has HS 578T breast growth equal to 105% (inactive)

Record COc1ccc(/C=C2/SC(=S)NC2=O)c(OC)c1OC has HS 578T breast growth equal to 63.6% (inactive)

Record CCCCN1C(=O)CC(SC2CC(=O)N(CCCC)C2=O)C1=O (configuration not stated) has HS 578T breast growth equal to 103% (inactive)

Record Cc1cc(O)ccc1C1=NN(c2ccc(S(C)(=O)=O)cc2)C(=O)CC1 has HS 578T breast growth equal to 86.9% (inactive)

Record Cc1cc(CSc2ccccc2C(=O)N2CC=C(c3ccccc3)CC2)on1 has HS 578T breast growth equal to 100% (inactive)

----------
System: SR leukemia
Method summary: NCI-60 one-dose screen, 48 h
Conditions used: 10 µM
Compounds without any hit were thinned out: in the full panel of roughly 83,000, 20% have a hit. Activity calls are given as the source filed them. How the source made its calls: active means growth percent below 10; inactive means the rest.
# valid calls are 1 for active, 0 for inactive; nothing else

CN(C)CCCOc1ccccc1NC1=C(Cl)C(=O)C(Nc2ccccc2OCCCN(C)C)=C(Cl)C1=O; 1
COC(=O)C1OC1c1cc([N+](=O)[O-])ccc1OC (stereo unspecified); 0
CN(C)CCC1(c2ccccc2)CCN(C)C1=O (stereo unspecified); 0
CC(=O)Nc1cc2c(cc1Cl)Cc1cc(Cl)ccc1-2; 0
COc1cc(/C=C2\CCCC3=C2NC(N)=NC3c2cc(OC)c(OC)c(OC)c2)cc(OC)c1OC (stereo unspecified); 1

Short answer needed: outcome of this test for CC(C)(C)OC(=O)N1CCc2c(sc3ncnc(N/N=C/c4cccc5ccccc45)c23)C1 ?
0

Short answer needed: outcome of this test for Cc1cc(SC#N)cc(C(C)(C)C)c1O ?
0

Short answer needed: outcome of this test for O=C(CCl)Oc1ccc(OC(=O)CCl)cc1 ?
0

----------
Test system: K-562 leukemia
Method summary: NCI-60 one-dose screen, 48 h
Conditions used: 10 µM
This is part of a sample that, as a whole, favours compounds with a hit. Of some 83,000 tested, about 20% had one in any assay. Activity calls are given as the source filed them. Rule for the calls: active = growth percent below 10; inactive = the rest.
# valid calls are active, inactive; nothing else

Known results for compounds:
CC(C)(C)OC(=O)CN1CCc2c(sc3ncnc(N/N=C/c4ccccc4Br)c23)C1; inactive
CC[C@@H](C(=O)[C@@H](C)[C@@H](O)[C@H](C)[C@@H]1O[C@@H]([C@@H](CC)C(=O)N(CC)CC)CC[C@@H]1C)C1O[C@]2(C=CC(=O)[C@]3(CC[C@@](C)([C@H]4CC[C@](O)(CC)[C@H](C)O4)O3)O2)[C@H](C)C[C@@H]1C (stereo partly drawn); inactive
Cc1ccc(-n2c(C)nn3c(=O)c4c5c(sc4nc23)CN(C)CC5)cc1; inactive
COc1ccc(-c2nnc(SCC(=O)Nc3ccc(C(=O)/C=C/c4ccccc4)cc3)n2-c2ccccc2)cc1OC; inactive
Cc1cc(SCc2ccccc2)nc(N)n1; inactive

Short answer needed: outcome of this test for Nc1nc(-c2cccnc2)nc2c1sc(=S)n2-c1ccccc1 ?
inactive

Short answer needed: outcome of this test for O=S(=O)(Oc1ccc(-c2ccc3sccc3c2)cc1)c1ccc(F)cc1 ?
inactive

Short answer needed: outcome of this test for COc1cc2cc(Oc3ccc(NC(=O)Nc4ccc(Cl)c(C(F)(F)F)c4)cc3)c(C)nc2cc1OC ?
active

----------
System: K-562 leukemia
Method summary: NCI-60 one-dose screen, 48 h
Conditions used: 10 µM
The panel holds about 83,000 compounds, 20% with a hit somewhere; the sample as a whole holds those more often. Calls of active or inactive are those of the source. The calls were made as follows: active = growth percent below 10; inactive = the rest.
# valid calls are Yes = active, No = inactive; nothing else

Known results for compounds:
CC(C)C[C@H](NC(=O)Cn1cccc(CNC(=O)c2ccccc2)c1=O)B(O)O; No
COc1ccc2cc(-c3nc4ccccc4s3)c(Cl)nc2c1OC; No
CC(=O)N[C@H](C(=O)N[C@@H](CCCNC(=N)N)C(=O)N[C@@H](CCCCN)C(=O)N[C@@H](CCCNC(=N)N)C(=O)N[C@]1(C)CCC/C=C\CCC[C@@](C)(C(=O)N[C@@H](CC(C)C)C(=O)N[C@@H](CC(C)C)C(=O)N[C@@H](CCC(N)=O)C(=O)N[C@@H](CCC(=O)O)C(=O)N[C@@H](CCCNC(=N)N)C(=O)N[C@@H](CCC(=O)O)C(=O)N[C@@H](CC(C)C)C(=O)N[C@H](C(=O)N[C@@H](CCC(=O)O)C(N)=O)C(C)C)NC(=O)[C@H](CCCNC(=N)N)NC(=O)[C@H](CC(C)C)NC1=O)C(C)C; No

Short answer needed: outcome of this test for Clc1nc2ccccc2cc1Cn1nnc(Cc2ccccc2)n1 ?
No

Short answer needed: outcome of this test for CC[C@@H](C(=O)[C@H](C)[C@H](O)[C@@H](C)[C@H]1O[C@H]([C@@H](CC)C(=O)O)CC[C@H]1C)C1O[C@]2(C=C[C@@H](O)[C@]3(CC[C@@](C)([C@H]4CC[C@](O)(CC)[C@H](C)O4)O3)O2)[C@H](C)C[C@@H]1C (stereo not given in full) ?
Yes

Short answer needed: outcome of this test for COc1ccc(-c2nn(-c3cccc(Cl)c3)cc2-c2c(C#N)c(=O)n3[nH]c(-c4ccccc4)nc3c2C#N)cc1 ?
No

Short answer needed: outcome of this test for Cc1ccc(Cl)cc1NC(=O)CCl ?
No

Short answer needed: outcome of this test for CN(C)CCOc1ccc(-c2nc3sccn3c2-c2ccnc(S(C)(=O)=O)n2)cc1 ?
No

----------
Tested on: T-47D breast
Method summary: NCI-60 one-dose screen, 48 h (100 = growth as untreated, 0 = no growth, -100 = all killed)
Conditions used: 10 µM
The panel holds about 83,000 compounds, 20% with a hit somewhere; the sample as a whole holds those more often. Activity calls are given as the source filed them. How the source made its calls: active means growth percent below 10; inactive means the rest.
Measured property: growth

Recorded results for 3 compounds are shown here.
COc1cc(/C=C2\CCCC3=C2NC(N)=NC3c2cc(OC)c(OC)c(OC)c2)cc(OC)c1OC (stereo not drawn); 27.5% (inactive)
CO[C@H]1CC(O[C@@H]2/C(C)=C/C[C@@H]3C[C@@H](C[C@]4(C=C[C@H](C)[C@@H](C5CCCCC5)O4)O3)OC(=O)[C@@H]3C=C(C)[C@@H](O)[C@H]4OC/C(=C\C=C\[C@@H]2C)[C@]43O)O[C@@H](C)C1O[C@H]1C[C@H](OC)[C@@H](O)[C@H](C)O1 (stereo partly drawn); -51.2% (active)
O=C1c2ccccc2C(=O)c2c1ccc1c(=O)n(-c3ccccc3C(F)(F)F)nnc21; 15.8% (inactive)

Nc1nc(Cn2c(-c3nonc3N)nc3ccccc32)nc(N2CCCCC2)n1 yielded growth of 83% (inactive)

CCN(CC)CCCC(C)Nc1c2ccc(Cl)cc2nc2ccc(OC)cc12 (stereo not drawn) yielded growth of 14% (inactive)

CN(C)CCCOc1cccc(NC2=C(Cl)C(=O)C(Nc3cccc(OCCCN(C)C)c3)=C(Cl)C2=O)c1 yielded growth of -44% (active)

CCn1cc(CNc2ccc(C(=O)Nc3ccc4ccccc4c3)cc2)c(C)n1 yielded growth of 6.54% (active)

O=C1CC(SC(=S)C2CCCC2=O)C(=O)N1 (stereo not drawn) yielded growth of 93.9% (inactive)
